Literature-derived pIC50 for RAC-beta serine/threonine-protein kinase (Homo sapiens, UniProt P31751) follows.
pIC50: −log10 of the molar value.

molecule	pIC50
NC1(c2ccc(-c3nc4c(cc3-c3ccccc3)-c3n[nH]cc3CCC4)cc2)CCC1	5.00 to 6.00
CN(C)CCN1CCc2nc(-c3ccc(C4(N)CCC4)cc3)c(-c3ccccc3)cc2C1=O	5.00 to 6.00
COc1ccc(CN2CCN(c3ncnc4[nH]nc(Br)c34)CC2)cc1	< 5.70
Brc1n[nH]c2ncnc(N3CCN(Cc4ccc(-c5ccccc5)cc4)CC3)c12	< 5.70
NC1(c2ccc(-c3nc4n(c3-c3ccccc3)COc3cccnc3-4)cc2)CCC1	8.40
C[C@@H]1C[C@@H](O)c2ncnc(N3CCN(C(=O)[C@H](CNCCCNC(=O)COc4cccc5c4C(=O)N(C4CCC(=O)NC4=O)C5=O)c4ccc(Cl)cc4)CC3)c21 (stereo partly shown)	7.50
NC(=O)c1nnc2n1-c1cc(-c3ccccc3)c(-c3ccc(C4(N)CCC4)cc3)nc1OC2	6.00 to 7.00
Cn1ncc(Cl)c1-c1ccc2c(c1)CN(C(CN)c1ccc(F)cc1)C2=O (stereo not shown)	5.30 to 6.30
CCSCc1cnn(C)c1-c1ccc2c(c1)CN([C@H](CN)Cc1cc(F)cc(F)c1)C2=O	> 6.30
CN(C)C(=O)CN1CCN(c2ncnc3[nH]nc(Br)c23)CC1	< 5.70
NC[C@H](Cc1cc(F)ccc1F)NC(=O)c1cc2c(s1)CCCn1ncc(Br)c1-2	7.42
NC1(c2ccc(-c3nc4n(c3-c3ccccc3)COc3cccc(Cl)c3-4)cc2)CC(O)(C2CC2)C1 (stereo not shown)	9.52
NC(=O)CN1C(=O)COc2nc(-c3ccc(C4(N)CCC4)cc3)c(-c3ccccc3)cc21	6.00 to 7.00
CCCN1C(=O)COc2nc(-c3ccc(C4(N)CCC4)cc3)c(-c3ccccc3)cc21	≥ 7.00
CCSCc1cnn(C)c1-c1cc2c(cn1)C(=O)N([C@H](CN)Cc1cccc(F)c1)C2	< 5.30
Cn1ncc(-c2cccnc2F)c1-c1ccc2c(c1)CN([C@H](CN)Cc1cccc(F)c1)C2=O	< 5.30
